- Tested on: B6C3F1 mice, ip Sarcoma M5076, median survival T/C
- assayProtocol: NCI In Vivo Anticancer Drug Screen. Data for tumor model Sarcoma M5076 (intraperitoneal) in B6C3F1 mice
- conditionLabel: endpoint: median survival time; dose: 100.0 mg/kg/injection; schedule: Q04DX004 (ip); vehicle: saline with Tween-80; higher = longer survival
Toxic doses and inconclusive results are not listed.
resultType: T/C

Check out these entries, answers already filled in.
[
  {
    "compound": "Nc1ccccc1Sc1cc(Cl)nnc1Cl",
    "T/C": "98 % of control"
  },
  {
    "compound": "O=C1N(Cl)C(=O)C(c2ccc(Cl)cc2)(c2ccc(Cl)cc2)N1Cl",
    "T/C": "96 % of control"
  },
  {
    "compound": "CCCCCCCC(=O)[O][Hg][CH2]C1COC([CH2][Hg][O]C(=O)CCCCCCC)CO1 (stereo not given)",
    "T/C": "87 % of control"
  }
]

For every record below, what is its T/C?
1. S=C(NCNC(=S)c1ccncc1)c1ccncc1
2. CSc1c(N(C)C)c(=O)c1=S
3. Cc1cccc(-n2c(CC#N)n[nH]c2=S)c1
4. COc1cccc(-n2cc[n+](C)c2/C=N/O)c1
5. O=Cc1ccc(O)c(O)c1
6. O=C(CN1CCOCC1)Nc1nc(-c2ccc(Cl)cc2)cs1
7. O=C(Nc1ccccc1O)C1C(=O)C(=O)N(c2ccccc2O)C1=O (stereo not given)

1: 92 % of control; 2: 93 % of control; 3: 109 % of control; 4: 100 % of control; 5: 96 % of control; 6: 91 % of control; 7: 103 % of control
